Data provenance: patent US20250122183A1

The entries below come with measured Ki values attached.
Biological target: KAT7+JADE1+EAF6+ING5 4 protein complex (Homo sapiens (Human))
Assay: KAT7 JADE1 assay (SAMDI-MS acetylation of H3 1-21 peptide)
Format: biochemical
Conditions: Morrison equation fit; replicate number in parentheses; read-out: KAT7 JADE1 Ki (nM) (replicate number)

Check out these entries, answers already filled in.
- COc1cc2c(NS(=O)(=O)c3c(OC)cccc3OC)noc2cc1Nc1cc(C)nn1C(C)C: > 12500 nM
- COc1cc2c(NS(=O)(=O)c3c(OC)cccc3OC)noc2cc1Nc1cc(C2CC2)nn1C: > 12500 nM

Okay, next one:
Entry under review: `COc1cc2c(NS(=O)(=O)c3c(OC)cccc3OC)noc2cc1Nc1[nH]nc2c1CNC2` . Reported Ki?
> 2340 nM

====

Target: KAT7+JADE1+EAF6+ING5 4 protein complex (Homo sapiens (Human), UniProt O95251)
Assay: KAT7 JADE1 assay (SAMDI-MS acetylation of H3 1-21 peptide)
Assay type: biochemical
Settings: Morrison equation fit; replicate number in parentheses; read-out: KAT7 JADE1 Ki (nM) (replicate number)
measurementName: Ki (nM)
Give the value, in units of nM, as a plain number.

Check out these entries, answers already filled in.
- COc1cc(Nc2cc3onc(NS(=O)(=O)c4c(OC)cccc4OC)c3cc2OC)n[nH]1: 48.2
- COc1cc2c(NS(=O)(=O)c3c(OC)cc(C4CCN([C@H]5CCOC5)C4)cc3OC)noc2cc1Nc1cc(C2CC2)n[nH]1 (single isomer, unassigned) [Example 163]: 8.2
- COc1cc2c(NS(=O)(=O)c3c(OC)cccc3OC)noc2cc1Nc1ccn(C(C)C)n1: 441
- COc1cc2c(NS(=O)(=O)c3c(OC)cc(C4CCCN(CC(F)F)C4)cc3OC)noc2cc1Nc1cc(C2CC2)n[nH]1 (single isomer, unassigned) [Example 167]: 4

Entry under review: `CCc1cc(Nc2cc3onc(NS(=O)(=O)c4cccc(Oc5ccc(F)cc5)c4)c3cc2OC)n[nH]1` . Reported Ki?
212

Entry under review: `CCn1nc(Nc2cc3onc(NS(=O)(=O)c4c(OC)cccc4OC)c3cc2OC)cc1C1CC1` . Reported Ki?
9090

Entry under review: `COc1cc2c(NS(=O)(=O)c3c(OC)cc(-c4cscn4)cc3OC)noc2cc1Nc1cc(C2CC2)n[nH]1` . Reported Ki?
8.9

Entry under review: `CCOc1cccc(OC)c1S(=O)(=O)Nc1noc2cc(Nc3cc[nH]n3)c(OC)cc12` . Reported Ki?
248

Entry under review: `CCn1cnc(Nc2cc3onc(NS(=O)(=O)c4c(OC)cccc4OC)c3cc2OC)n1` . Reported Ki?
359

====

The entries below come with measured Ki values attached.
Molecular target: KAT5 Full length enzyme (Homo sapiens (Human), UniProt Q92993)
Sequence (Q92993 whole entry): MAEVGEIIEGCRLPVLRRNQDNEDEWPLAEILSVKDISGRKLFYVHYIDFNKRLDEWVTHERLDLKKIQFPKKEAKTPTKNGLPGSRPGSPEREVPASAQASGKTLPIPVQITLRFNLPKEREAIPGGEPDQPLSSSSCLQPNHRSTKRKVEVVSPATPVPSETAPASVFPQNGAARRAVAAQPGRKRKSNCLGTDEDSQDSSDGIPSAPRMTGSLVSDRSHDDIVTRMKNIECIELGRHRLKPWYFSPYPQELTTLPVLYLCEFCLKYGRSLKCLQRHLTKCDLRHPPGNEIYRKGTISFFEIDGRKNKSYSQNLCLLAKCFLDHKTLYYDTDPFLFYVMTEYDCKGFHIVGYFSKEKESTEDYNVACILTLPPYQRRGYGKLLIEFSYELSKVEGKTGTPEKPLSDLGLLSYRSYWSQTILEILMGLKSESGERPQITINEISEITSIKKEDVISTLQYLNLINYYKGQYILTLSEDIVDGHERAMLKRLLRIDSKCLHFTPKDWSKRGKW
Assay: KAT5 assay (SAMDI-MS acetylation of H4 1-21 peptide)
Format: biochemical
Conditions: Morrison equation fit; replicate number in parentheses; read-out: KAT5 Ki (nM) (replicate number)
Give the value, in units of nM, as a plain number.

Identify the measured Ki of `COc1cc2c(NS(=O)(=O)c3c(OC)cccc3OC)noc2cc1Nc1cc(C(C)(C)C)n[nH]1` for KAT5 Full length enzyme (Homo sapiens (Human), UniProt Q92993).
546
